- EXPERIMENTAL SYSTEM: human Y5 receptor (Homo sapiens)
- Sequence (Q15761 whole entry): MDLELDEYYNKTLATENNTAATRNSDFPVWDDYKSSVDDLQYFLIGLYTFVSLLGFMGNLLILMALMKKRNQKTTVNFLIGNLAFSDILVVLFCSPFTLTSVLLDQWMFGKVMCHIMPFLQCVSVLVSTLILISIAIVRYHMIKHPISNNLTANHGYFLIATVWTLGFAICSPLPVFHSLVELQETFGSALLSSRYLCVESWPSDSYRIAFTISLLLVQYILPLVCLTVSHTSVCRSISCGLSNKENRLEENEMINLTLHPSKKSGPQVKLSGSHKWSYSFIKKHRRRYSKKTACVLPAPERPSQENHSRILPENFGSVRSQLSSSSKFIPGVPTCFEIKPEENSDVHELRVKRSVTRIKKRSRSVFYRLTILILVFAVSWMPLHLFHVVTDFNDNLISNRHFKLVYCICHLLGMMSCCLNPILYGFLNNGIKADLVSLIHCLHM
- ASSAY PROCEDURE: Y5 receptor binding inhibition test
- CONDITION CONTEXT: 2 h, read-out: % Inhibition ratio (10 μM)
OBSERVED PROPERTY: inhibition at 10 µM (%)

CCn1c2ccccc2c2cc(C(=O)NCCCCCNC(=O)c3ccc4[nH]ccc4c3)ccc21 [Compound 1-25]; 100
CC(C)S(=O)(=O)NCCCCCNC(=O)c1ccc2c(c1)c1c(n2CCOCCO)CCCC1 [Compound 1-60]; 86
CCn1c2ccccc2c2cc(NS(C)(=O)=O)ccc21 [Compound 3-8]; 73
CCn1c2ccccc2c2cc(C(=O)NC(C)CCCCNS(=O)(=O)c3cccc4ccccc34)ccc21 (centres unmarked) [Compound 1-34]; 88
CCn1c2ccccc2c2cc(NC(=O)CCCCCNS(=O)(=O)c3cccc4ccccc34)ccc21 [Compound 1-2]; 91
CCn1c2ccccc2c2cc(C(=O)NCCN(C)CCNS(=O)(=O)c3cccc4ccccc34)ccc21 [Compound 1-30]; 99
COCCn1c2c(c3cc(C(=O)NCCOCCNS(C)(=O)=O)ccc31)CCCC2 [Compound 1-53]; 66
CCn1c2c(c3cc(NC(C)=O)ccc31)CCCC2 [Compound 3-1]; 88

Data provenance: patent US6713473B1
